Here, each record is paired with measured pIC50 data.
Tested on: HCT116 cells treated with a GSK3β inhibitor
ASSAY: cells
Assay type: cell-based
ASSAY_CONDITIONS: Homo sapiens, HCT-116, read-out: GSK3b inh pretreated_Viability ATP HCT116
pIC50: −log10 of the molar value.

| COMPOUND | OPERATOR_SYMBOL | pIC50 |
| --- | --- | --- |
| C=CC(=O)Nc1cc2c(Nc3ccc(F)c(Cl)c3)ncnc2cc1OCCCN1CCOCC1 [Canertinib] | = | 5.45 |
| CCCCC1C(=O)N(c2ccccc2)N(c2ccc(O)cc2)C1=O (stereo not shown) [Oxyphenbutazone] | < | 4.70 |
| CN(C)c1ccc2nc3ccc(=[N+](C)C)cc-3sc2c1 [Methylene blue] | = | 5.86 |
| Nc1ncnc2c1ncn2CCOCP(=O)(O)O [Adefovir] | = | 6.23 |
| O=C(NOCC1CC1)c1ccc(F)c(F)c1Nc1ccc(I)cc1Cl [PD-184352, reference compound] | = | 6.01 |
| Cc1nc2ccc(CN(C)c3ccc(C(=O)N[C@@H](CCC(=O)O)C(=O)O)s3)cc2c(=O)[nH]1 [raltitrexed, reference compound] | = | 8.64 |
| CC[C@@H]([C@H](C)O)n1ncn(-c2ccc(N3CCN(c4ccc(OC[C@@H]5CO[C@@](Cn6cncn6)(c6ccc(F)cc6F)C5)cc4)CC3)cc2)c1=O [posaconazole] | < | 4.70 |
| Cc1nc(N)nc(N)c1-c1ccc(Cl)c(Cl)c1 [metoprine, reference compound] | = | 7.23 |
| COc1c(C)c2c(c(O)c1C/C=C(\C)CCC(=O)O)C(=O)OC2 [Mycophenolate] | = | 7.30 |
| COc1cc(NCc2ccc3nc(N)nc(N)c3c2C)cc(OC)c1OC [trimetrexate, reference compound] | = | 8.41 |
